assay_details: Drug uptake in high fat diet fed C57/BL6 mouse eDIO model whole blood at 30 mg/kg, po after 3 hrs
Type: ADME, organism-based
Parameters: dose 30 mg/kg, route oral
condition_label: read-out: Drug uptake
endpoint: concentration at 3 h (nM)
Write the answer as a number in nM, unit excluded.

Which measured concentration at 3 h value corresponds to "O=C(O)c1cncc(-c2ccc(N3CCC(Oc4cc(F)ccc4Br)CC3)nn2)c1" ?
320

----------
assay_details: Drug uptake in high sucrose/fat free diet fed C57/BL6 mouse liver at 10 mg/kg, po after 3 hrs
Assay type: ADME, organism-based
Set-up: dose 10 mg/kg, route oral
condition_label: read-out: Drug uptake
endpoint: concentration at 3 h

Which measured concentration at 3 h value corresponds to "O=C(O)c1cncc(-c2ccc(N3CCC(Oc4cc(F)ccc4Br)CC3)nn2)c1" ?
2970 nM
